quantity-kind: glass transition temperature (°C)

These solved cases illustrate the format of a correct answer.
Please report the recorded glass transition temperature for *c1cccc(P(C)(=O)c2cccc(N3C(=O)c4ccc(Oc5ccc(C(C)(C)c6ccc(Oc7ccc8c(c7)C(=O)N(*)C8=O)cc6)cc5)cc4C3=O)c2)c1 (repeat unit) .
228.00

Please report the recorded glass transition temperature for *C(=O)c1ccc2c(c1)C(=O)N(c1ccc(C(=O)N(C)c3ccc(N4C(=O)c5ccc(*)cc5C4=O)cc3)cc1)C2=O (repeat unit) .
313.00

1 = *c1ccc2c(c1)C(=O)N(c1cccc(C(F)(F)C(F)(F)C(F)(F)c3cccc(N4C(=O)c5ccc(C(F)(F)C(F)(F)C(*)(F)F)cc5C4=O)c3)c1)C2=O (repeat unit)
2 = *Oc1cccc(OC2(F)C(*)(F)C(F)(F)C2(F)F)c1 (repeat unit)
3 = *O[Si](C)(C)O[Si](C)(C)O[Si](C)(C)O[Si](C)(C)O[Si](C)(C)c1ccc(Oc2ccc([Si](*)(C)C)cc2)cc1 (repeat unit)
4 = *Oc1ccc(-c2ccc(OC(=O)c3ccc(-c4ccc(C(*)=O)cc4C(F)(F)F)c(C(F)(F)F)c3)cc2C(=O)OCCCCCCCCCCCOc2ccc(-c3ccc(C#N)cc3)cc2)c(C(=O)OCCCCCCCCCCCOc2ccc(-c3ccc(C#N)cc3)cc2)c1 (repeat unit)
Put the entries in order of glass transition temperature, starting with the largest number. Submit the labels in the order that the ranking request calls for.
1, 4, 2, 3

P = *OS(=O)(=O)c1cccc(S(=O)(=O)Oc2ccc(C3(c4ccc(*)cc4)CCCCC3)cc2)c1 (repeat unit)
Q = *CC(*)(C)C(=O)OCCCCCCC(F)(F)C(F)(F)C(F)(F)C(F)(F)F (repeat unit)
R = */C=C/C1CC(*)C2C(=O)N(CCCCCCC)C(=O)C12 (repeat unit)
S = *c1cccc(C(=O)Nc2ccc(NC(=O)c3cccc(N4C(=O)c5ccc(-c6cccc7c6C(=O)N(*)C7=O)cc5C4=O)c3)cc2)c1 (repeat unit)
Rank items: key glass transition temperature, increasing. Submit the labels in the order that the ranking request calls for.
Q, R, P, S
(Q: 23.00 °C, R: 59.00 °C, P: 127.00 °C, S: 328.00 °C)

A = *c1ccc2c(c1)C(=O)N(c1cc(OCCCCCCCCCCCCCCCC)cc(N3C(=O)c4ccc(C(*)(C(F)(F)F)C(F)(F)F)cc4C3=O)c1)C2=O (repeat unit)
B = */C=C/c1ccc(/C=C/[Si](C)(CCC(F)(F)F)c2cccc([Si](*)(C)CCC(F)(F)F)c2)cc1 (repeat unit)
# query: argmin of glass transition temperature over A and B Indicate your choice by writing its label.
B

A = *CC(*)(C)C(=O)OCCCCCn1c2ccccc2c2ccccc21 (repeat unit)
B = *O[Si](*)(C)CCCCCCCCCCCOc1ccc(/C=C/c2ccc(OCCCC)cc2)cc1 (repeat unit)
C = *C(=O)c1ccc(Oc2ccc(S(=O)(=O)c3ccc(Oc4ccc(C(=O)c5ccc6c(c5)C(=O)N(c5ccc(Oc7ccc(N8C(=O)c9ccc(*)cc9C8=O)cc7)cc5)C6=O)cc4)cc3)cc2)cc1 (repeat unit)
Rank items: key glass transition temperature, increasing. Submit the labels in the order that the ranking request calls for.
B, A, C
(B: -33.00 °C, A: 91.00 °C, C: 241.00 °C)

A = *CC(*)(C)C(=O)OCCN(C)c1ccc(/N=N/c2ccc(S(=O)(=O)Nc3cc(C)on3)cc2)cc1 (repeat unit)
B = *C#CC#Cc1cc(C(C)(C)C)cc2c3cc(C(C)(C)C)cc(*)c3n(CCCCCCCCCCCCCCCC)c12 (repeat unit)
C = *Oc1ccc(-c2ccc(Oc3ccc(/C(=N/c4ccc(/N=C(\c5ccccc5)c5ccc(*)cc5)cc4)c4ccccc4)cc3)cc2)cc1 (repeat unit)
Put the entries in order of glass transition temperature, starting with the largest number. Submit the labels in the order that the ranking request calls for.
C, A, B

A = *CC(COc1ccc(-c2ccc(OC)cc2)cc1)O* (repeat unit)
B = *CCCCCCN(CC(F)(F)C(F)(F)F)C(=O)C(F)(F)C(F)(F)C(F)(F)C(=O)N(*)CC(F)(F)C(F)(F)F (repeat unit)
C = *CC(F)(F)C(F)(F)C(F)(F)COC(=O)c1cccc(-c2cccc(C(=O)O*)c2)c1 (repeat unit)
Put the entries in order of glass transition temperature, starting with the largest number. Submit the labels in the order that the ranking request calls for.
B, A, C
(B: 174.00 °C, A: 111.00 °C, C: 45.00 °C)

Just for reference, the PolyMetriX glass transition set is where these values come from.
